- Target under test: recombinant human TSG-6 (Homo sapiens, UniProt P19827+P98066)
- Construct: TSG-6–mediated HC-transfer assays (using full-length TSG6); purchased R&D Systems
- Sequence (P98066 18-277): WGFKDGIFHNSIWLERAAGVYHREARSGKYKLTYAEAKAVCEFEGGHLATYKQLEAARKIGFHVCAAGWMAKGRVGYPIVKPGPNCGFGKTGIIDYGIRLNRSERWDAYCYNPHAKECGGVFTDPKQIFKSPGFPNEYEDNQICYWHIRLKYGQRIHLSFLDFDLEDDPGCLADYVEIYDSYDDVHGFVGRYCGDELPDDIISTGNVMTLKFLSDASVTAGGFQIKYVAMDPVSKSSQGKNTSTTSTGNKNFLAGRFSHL
- Sequence (P19827 35-672 limits assumed): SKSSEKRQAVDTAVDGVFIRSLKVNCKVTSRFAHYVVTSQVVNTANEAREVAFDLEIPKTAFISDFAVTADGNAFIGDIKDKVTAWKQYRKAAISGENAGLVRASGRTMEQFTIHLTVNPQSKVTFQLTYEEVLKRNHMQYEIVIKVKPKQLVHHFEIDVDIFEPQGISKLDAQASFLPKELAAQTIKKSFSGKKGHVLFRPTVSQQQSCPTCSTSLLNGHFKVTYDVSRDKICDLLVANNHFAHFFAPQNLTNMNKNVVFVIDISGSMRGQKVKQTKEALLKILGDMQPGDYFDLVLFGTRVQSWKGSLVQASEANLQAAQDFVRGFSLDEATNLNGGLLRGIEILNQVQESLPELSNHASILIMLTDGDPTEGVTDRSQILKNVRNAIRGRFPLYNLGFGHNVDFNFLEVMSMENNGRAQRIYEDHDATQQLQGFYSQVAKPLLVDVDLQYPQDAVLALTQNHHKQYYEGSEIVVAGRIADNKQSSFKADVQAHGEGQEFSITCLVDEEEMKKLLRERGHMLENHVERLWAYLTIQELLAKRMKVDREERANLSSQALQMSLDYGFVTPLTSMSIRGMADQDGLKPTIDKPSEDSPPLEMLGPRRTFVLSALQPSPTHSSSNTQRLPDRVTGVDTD
- Test protocol: In vitro HC-transfer assay (IαI + rhTSG-6, Western blot anti-HC1)
- Format: biochemical
- Condition context: Table 6; 15 μM HA, 1.8 μM IαI, rhTSG-6, 2 h at 37 °C
Recorded endpoint: Substrate for HC transfer

CC(=O)N[C@H]1[C@H](O[C@H]2[C@H](O)[C@@H](O)[C@H](O[C@H]3[C@H](O)[C@@H](CO)O[C@@H](O[C@H]4[C@H](O)[C@@H](O)[C@H](O[C@H]5[C@H](O)[C@@H](CO)O[C@@H](O[C@H]6[C@H](O)[C@@H](O)[C@H](O[C@@H]([C@H](O)[C@H](O)CO)[C@H](CNc7cccc(C(=O)O)c7)NC(C)=O)O[C@@H]6C(=O)O)[C@@H]5NC(C)=O)O[C@@H]4C(=O)O)[C@@H]3NC(C)=O)O[C@@H]2C(=O)O)O[C@H](CO)[C@@H](O)[C@@H]1O[C@@H]1O[C@H](C(=O)O)[C@@H](O)[C@H](O)[C@H]1O | Yes

* * *

- Target under test: recombinant human TSG-6 (Homo sapiens, UniProt P19827+P98066)
- Construct: TSG-6–mediated HC-transfer assays (using full-length TSG6); purchased R&D Systems
- Test protocol: In vitro HC-transfer assay (IαI + rhTSG-6, Western blot anti-HC1)
- Assay type: biochemical
- Condition context: Table 6; 15 μM HA, 1.8 μM IαI, rhTSG-6, 2 h at 37 °C
Recorded endpoint: Substrate for HC transfer

CC(=O)N[C@H]1[C@H](O[C@H]2[C@H](O)[C@@H](O)[C@H](O[C@H]3[C@H](O)[C@@H](CO)O[C@@H](O[C@H]4[C@H](O)[C@@H](O)[C@H](O[C@H]5[C@H](O)[C@@H](CO)O[C@@H](O[C@H]6[C@H](O)[C@@H](O)[C@H](O[C@@H]([C@H](O)[C@H](O)CO)[C@H](CNc7cccc8c7CCC8)NC(C)=O)O[C@@H]6C(=O)O)[C@@H]5NC(C)=O)O[C@@H]4C(=O)O)[C@@H]3NC(C)=O)O[C@@H]2C(=O)O)O[C@H](CO)[C@@H](O)[C@@H]1O[C@@H]1O[C@H](C(=O)O)[C@@H](O)[C@H](O)[C@H]1O | Yes
